All figures here come from ChEMBL document CHEMBL1127542.

molecular target: Sterol O-acyltransferase 1 (Oryctolagus cuniculus); experiment: In vitro inhibition of rabbit intestinal acyl coenzyme A:cholesterol acyltransferase using [1-14C]oleolyl-CoA
measured endpoint: IC50 (nM)
Please respond with the number in nM and leave the unit unwritten.

Worked examples, 3 compounds total:
CC(C)=CCCC(C)CC(=O)NC(CNC(=O)Nc1c(C(C)C)cccc1C(C)C)c1ccccc1 (centres undefined) ... 400
CC(C)c1cccc(C(C)C)c1NC(=O)NCC(NC(=O)c1ccncc1)c1ccccc1 (centres undefined) ... 3200
CC(C)c1cccc(C(C)C)c1NC(=O)NCC(NCc1ccc(O)c(CN(C)C)c1)c1ccccc1 (single isomer, unassigned; (-)) ... 490

Exercise: Supply recorded IC50 for CC(C)c1cccc(C(C)C)c1NC(=O)NCC(CNC(=O)c1ccccc1)c1ccccc1 (centres undefined) here.
Key: 1900

###

biological target: Sterol O-acyltransferase 1 (Oryctolagus cuniculus); assay: In vitro inhibition of rabbit intestinal acyl coenzyme A:cholesterol acyltransferase using [1-14C]oleolyl-CoA
Documented IC50 across a set of compounds
Please respond with the number in µM and leave the unit unwritten.

Worked examples, 5 compounds total:
Cc1ccc(CNC(CNC(=O)Nc2c(C(C)C)cccc2C(C)C)c2ccccc2)cc1 (racemic) ... 0.052
COc1ccc(CNC(CNC(=O)Nc2c(C(C)C)cccc2C(C)C)Cc2ccccc2)cc1 (single isomer, unassigned; (-)) ... 0.27
CC(C)c1cccc(C(C)C)c1NC(=O)NCC(NC(=O)c1ccc2ccccc2n1)c1ccccc1 (centres undefined) ... 0.15
CC(C)c1cccc(C(C)C)c1NC(=O)NCC(NCc1ccccc1)c1ccccc1 (single isomer, unassigned; (-)) ... 0.033
CC(C)c1cccc(C(C)C)c1NC(=O)NCC(NC(=O)CCCCCBr)c1ccccc1 (centres undefined) ... 0.38

Turning to the following compound.
Exercise: Report value only: IC50, Sterol O-acyltransferase 1 (Oryctolagus cuniculus), CC(C)c1cccc(C(C)C)c1NC(=O)NCC(Cc1ccccc1)NCc1ccccc1O (centres undefined)
Key: 0.41

###

target: Sterol O-acyltransferase 1 (Oryctolagus cuniculus); assay: In vitro inhibition of rabbit intestinal acyl coenzyme A:cholesterol acyltransferase using [1-14C]oleolyl-CoA
Documented log10 IC50 across a set of compounds
Heads up, the numbers here are log10 of IC50 in µM units.

Worked examples, 10 compounds total:
COc1ccc(C(=O)NC(CNC(=O)Nc2c(C(C)C)cccc2C(C)C)C2CCCCC2)cc1 (racemic) ... -0.60
CC(C)c1cccc(C(C)C)c1NC(=O)NCC(NC(=O)CCCCCN(CCO)CCO)c1ccccc1 (stereo not drawn) ... 0.45
CC(C)c1cccc(C(C)C)c1NC(=O)NCC(NCc1ccc(N(C)C)cc1)c1ccccc1 (stereo in doubt; 9n(+)) ... -1.22
CC(C)c1cccc(C(C)C)c1NC(=O)NCC(NCc1ccccn1)c1ccccc1 (stereo not drawn) ... -0.85
CCCCCNC(CNC(=O)Nc1c(C(C)C)cccc1C(C)C)c1ccccc1 (racemic) ... -0.96
CC(C)c1cccc(C(C)C)c1OC(=O)NCC(NC(=O)OC(C)(C)C)c1ccccc1 (single isomer, unassigned; (-)) ... -0.37
CC(C)c1cccc(C(C)C)c1NC(=O)NCC(NCc1ccccc1)c1ccccc1 (stereo in doubt; 9k(+)) ... -1.28
COc1ccc(CNC(CNC(=O)Nc2c(C(C)C)cccc2C(C)C)C(C)C)cc1 (single isomer, unassigned; (-)) ... -1.10
CC(=O)NC(CNC(=O)Nc1c(C(C)C)cccc1C(C)C)c1ccccc1 (stereo not drawn) ... 0.40
CCCCCCCCCCCC(=O)NC(CNC(=O)Oc1c(C(C)C)cccc1C(C)C)c1ccccc1 (single isomer, unassigned; (-)) ... -1.29

Exercise: Supply recorded log10 IC50 for CCCCCCC(=O)NC(COC(=O)Nc1c(C(C)C)cccc1C(C)C)c1ccccc1 (stereo in doubt; 34a(-)) here.
Key: -0.24

Exercise: Supply recorded log10 IC50 for COc1ccc(CNC(CNC(=O)Nc2c(C(C)C)cccc2C(C)C)c2ccccc2)cc1 (single isomer, unassigned; (-)) here.
Key: -1.41

Exercise: Supply recorded log10 IC50 for Cc1ccc(C(=O)NC(CNC(=O)Nc2c(C(C)C)cccc2C(C)C)c2ccccc2)cc1 (stereo not drawn) here.
Key: -0.46

Exercise: Supply recorded log10 IC50 for CCCCCCCCCCNC(CNC(=O)Nc1c(C(C)C)cccc1C(C)C)c1ccccc1 (racemic) here.
Key: -1.08

Exercise: Supply recorded log10 IC50 for CC(C)c1cccc(C(C)C)c1NC(=O)NCC(NCc1ccccc1C(F)(F)F)c1ccccc1 (single isomer, unassigned; (-)) here.
Key: -1.35

Exercise: Supply recorded log10 IC50 for CC(C)c1cccc(C(C)C)c1NC(=O)NCC(NCc1ccoc1)c1ccccc1 (stereo not drawn) here.
Key: -1.32

Exercise: Supply recorded log10 IC50 for CC(C)c1cccc(C(C)C)c1NC(=O)NCC(NCc1cccnc1)c1ccccc1 (stereo not drawn) here.
Key: -0.43

Exercise: Supply recorded log10 IC50 for CCCCCCCCCC(=O)NC(CNC(=O)Oc1c(C(C)C)cccc1C(C)C)c1ccccc1 (racemic) here.
Key: -0.12

Exercise: Supply recorded log10 IC50 for CC(C)c1cccc(C(C)C)c1NC(=O)NCC(NCc1ccncc1)c1ccccc1 (single isomer, unassigned; (+)) here.
Key: 0.08

Exercise: Supply recorded log10 IC50 for CCCCCCCCCCCCNC(CNC(=O)Nc1c(C(C)C)cccc1C(C)C)c1ccccc1 (racemic) here.
Key: -1.35

Exercise: Supply recorded log10 IC50 for CCCCCCCCCCCCCCCCCC(=O)NC(CNC(=O)Nc1c(C(C)C)cccc1C(C)C)c1ccccc1 (stereo not drawn) here.
Key: 0.23

Exercise: Supply recorded log10 IC50 for CC(C)c1cccc(C(C)C)c1NC(=O)NCC(CNCc1ccccc1)c1ccccc1 (stereo not drawn) here.
Key: -0.80

Exercise: Supply recorded log10 IC50 for CC(C)c1cccc(C(C)C)c1NC(=O)NCC(NCc1ccco1)c1ccccc1 (single isomer, unassigned; (-)) here.
Key: -1.32

Exercise: Supply recorded log10 IC50 for CC(C)c1cccc(C(C)C)c1NC(=O)NCC(NC(=O)c1cnccn1)c1ccccc1 (stereo not drawn) here.
Key: -0.36

Exercise: Supply recorded log10 IC50 for COc1ccc(C(=O)NC(CNC(=O)Nc2c(C(C)C)cccc2C(C)C)c2ccccc2)cc1 (stereo not drawn) here.
Key: -0.48

Exercise: Supply recorded log10 IC50 for CCCCCCCCCCCC(=O)NC(COC(=O)Nc1c(C(C)C)cccc1C(C)C)c1ccccc1 (stereo not drawn) here.
Key: -0.70

Exercise: Supply recorded log10 IC50 for CC(C)c1cccc(C(C)C)c1NC(=O)NCC(NC(=O)c1ccccc1)c1ccccc1 (stereo not drawn) here.
Key: -0.28
